Test system: SUM159PT
Experiment: -log10 GI50 (growth inhibition 50%) (-log10(M)); higher = more potent growth inhibition
Measurement Type: -log10 GI50
Lab note: record just the number, no unit beside it.

Compound | Study System | -log10 GI50
CC(=O)O[C@@]12CO[C@@H]1C[C@H](O)[C@@]1(C)C(=O)[C@H](O)C3=C(C)[C@@H](OC(=O)[C@H](O)[C@@H](NC(=O)OC(C)(C)C)c4ccccc4)C[C@@](O)([C@@H](OC(=O)c4ccccc4)[C@H]21)C3(C)C | SUM159PT | 8.77
Cc1cc(C(=O)N2CCN(c3cccc(Cl)c3)CC2)n(-c2ccccc2)n1 [XRP44X] | SUM159PT | 6.21
CO[C@H]1C[C@@H]2CC[C@@H](C)[C@@](O)(O2)C(=O)C(=O)N2CCCC[C@H]2C(=O)O[C@H]([C@H](C)C[C@@H]2CC[C@@H](O)[C@H](OC)C2)CC(=O)[C@H](C)/C=C(\C)[C@@H](O)[C@@H](OC)C(=O)[C@H](C)C[C@H](C)/C=C/C=C/C=C/1C | SUM159PT | 7.34
COC(=O)Nc1nc2cc(C(=O)c3ccccc3)ccc2[nH]1 | SUM159PT | 6.69
COc1cc2ncnc(Nc3cccc(Cl)c3)c2cc1OC | SUM159PT | 4.76

Turning now to a further compound:
Given item COc1cc(Nc2c(C#N)cnc3cc(OCCCN4CCN(C)CC4)c(OC)cc23)c(Cl)cc1Cl , the value recorded as its -log10 GI50 is 5.86

The values you see were collected from the supplement of paper PMC3937590.
